test: Pharmacokinetics study in rats after oral administration of YDXNT (UPLC-QqQ-MS of plasma); settings: male, Sprague-Dawley, rat, plasma, po, 4.8 g kg^−1 d^−1
property_name: AUC(0-t)

{"columns": ["compound", "property_name", "measurement"],
 "data": [
  ["O=c1c(O)c(-c2ccc(O)c(O)c2)oc2cc(O)cc(O)c12 [QCT, quercetin]", "AUC(0-t)", "410 ng·h/mL"],
  ["Cc1coc2c1C(=O)C(=O)c1c-2ccc2c1CCCC2(C)C [TSIIA, tanshinone IIA]", "AUC(0-t)", "167 ng·h/mL"],
  ["CC(C)(C)[C@]1(O)CC2OC(=O)CC23C(=O)OC2OC(=O)[C@H](O)C231 (stereo partly shown) [BB, bilobalide]", "AUC(0-t)", "366 ng·h/mL"],
  ["O=c1c(O)c(-c2ccc(O)cc2)oc2cc(O)cc(O)c12 [KMF, kaempferol]", "AUC(0-t)", "401 ng·h/mL"]
]}

* * *

assay: in vivo; conditions: male, Sprague-Dawley, rat, po
Here the recorded AUC(0-inf) is given for each entry.

{"columns": ["compound", "AUC(0-inf), ng·h/mL"],
 "data": [
  ["C[C@@H]1C(=O)O[C@H]2C[C@@]34[C@H]5C[C@@H](C(C)(C)C)[C@]36[C@@H](OC(=O)[C@@H]6O)O[C@@]4(C(=O)O5)[C@]21O [GA, ginkgolide A]", 545],
  ["COc1cc(-c2oc3cc(O)cc(O)c3c(=O)c2O)ccc1O [ISR, isorhamnetin]", 384]
]}

* * *

test: Pharmacokinetics study in rats after oral administration of YDXNT (UPLC-QqQ-MS of plasma); settings: male, Sprague-Dawley, rat, plasma, po, 4.8 g kg^−1 d^−1
Here the recorded Tmax is given for each entry.
property_name: Tmax (min)

{"columns": ["molecule", "unit_abbreviation", "measurement"],
 "data": [
  ["O=c1c(O)c(-c2ccc(O)c(O)c2)oc2cc(O)cc(O)c12", "min", 19.8],
  ["Cc1coc2c1C(=O)C(=O)c1c-2ccc2c1CCCC2(C)C", "min", 15],
  ["CC(C)(C)[C@]1(O)CC2OC(=O)CC23C(=O)OC2OC(=O)[C@H](O)C231 (stereo partly shown) [BB, bilobalide]", "min", 45],
  ["O=c1c(O)c(-c2ccc(O)cc2)oc2cc(O)cc(O)c12", "min", 30]
]}

* * *

assay: in vivo; settings: male, Sprague-Dawley, rat, po

{"columns": ["compound", "half-life (h)"],
 "data": [
  ["COc1cc(-c2oc3cc(O)cc(O)c3c(=O)c2O)ccc1O", 8.19],
  ["C[C@@H]1C(=O)O[C@H]2C[C@@]34[C@H]5C[C@@H](C(C)(C)C)[C@]36[C@@H](OC(=O)[C@@H]6O)O[C@@]4(C(=O)O5)[C@]21O [GA, ginkgolide A]", 7.52]
]}

* * *

assay: in vivo; details: male, Sprague-Dawley, rat, po

{"columns": ["compound", "unit_abbreviation", "Tmax"],
 "data": [
  ["COc1cc(-c2oc3cc(O)cc(O)c3c(=O)c2O)ccc1O [ISR, isorhamnetin]", "min", 19.8],
  ["C[C@@H]1C(=O)O[C@H]2C[C@@]34[C@H]5C[C@@H](C(C)(C)C)[C@]36[C@@H](OC(=O)[C@@H]6O)O[C@@]4(C(=O)O5)[C@]21O [GA, ginkgolide A]", "min", 45]
]}

* * *

Here the recorded half-life is given for each entry.
assay: Pharmacokinetics study in rats after oral administration of YDXNT (UPLC-QqQ-MS of plasma); details: male, Sprague-Dawley, rat, plasma, po, 4.8 g kg^−1 d^−1

{"columns": ["compound", "half-life [h]"],
 "data": [
  ["CC(C)(C)[C@]1(O)CC2OC(=O)CC23C(=O)OC2OC(=O)[C@H](O)C231 (stereo partly shown) [BB, bilobalide]", 5.55],
  ["O=c1c(O)c(-c2ccc(O)cc2)oc2cc(O)cc(O)c12", 8.19],
  ["O=c1c(O)c(-c2ccc(O)c(O)c2)oc2cc(O)cc(O)c12", 2.69],
  ["Cc1coc2c1C(=O)C(=O)c1c-2ccc2c1CCCC2(C)C", 7.04]
]}

* * *

Here the recorded MRT is given for each entry.
experiment: in vivo; conditions: male, Sprague-Dawley, rat, po

{"columns": ["compound", "MRT [h]"],
 "data": [
  ["COc1cc(-c2oc3cc(O)cc(O)c3c(=O)c2O)ccc1O [ISR, isorhamnetin]", 13.9],
  ["C[C@@H]1C(=O)O[C@H]2C[C@@]34[C@H]5C[C@@H](C(C)(C)C)[C@]36[C@@H](OC(=O)[C@@H]6O)O[C@@]4(C(=O)O5)[C@]21O [GA, ginkgolide A]", 9.42]
]}

* * *

test: Stability of the analytes in rat plasma QC samples (short-term, autosampler, freeze-thaw, long-term); details: 100 ng mL^−1, room temperature for 6 h before sample preparation, n = 6
Here the recorded Short-term stability Accuracy is given for each entry.

{"columns": ["compound", "Short-term stability Accuracy [%]"],
 "data": [
  ["O=c1c(O)c(-c2ccc(O)cc2)oc2cc(O)cc(O)c12", 97.10],
  ["Cc1coc2c1C(=O)C(=O)c1c-2ccc2c1CCCC2(C)C", 95.96],
  ["CC(C)(C)[C@]1(O)CC2OC(=O)CC23C(=O)OC2OC(=O)[C@H](O)C231 (stereo partly drawn) [BB, bilobalide]", 94.05],
  ["COc1cc(-c2oc3cc(O)cc(O)c3c(=O)c2O)ccc1O", 102.18],
  ["C[C@@H]1C(=O)O[C@H]2C[C@@]34[C@H]5C[C@@H](C(C)(C)C)[C@]36[C@@H](OC(=O)[C@@H]6O)O[C@@]4(C(=O)O5)[C@]21O [GA, ginkgolide A]", 98.31],
  ["O=c1c(O)c(-c2ccc(O)c(O)c2)oc2cc(O)cc(O)c12", 95.97]
]}
